assay: Caco-2 permeability; type: in vitro ADME; settings: human, Caco-2, pH 7.4; A to B, 2.00 µM, pH 7.40; read-out: Caco-2, Mean Papp,, A to B
ASSAY ENDPOINT: Papp A→B at 2 h, 2 µM

Report measured Papp A→B at 2 h, 2 µM; entry is CC(C(=O)NC1CCC(F)(F)CC1)(c1cnccn1)N(C(=O)CCl)c1ccc(-c2ccns2)cc1 (stereo not shown) [INSCoV-601N]
< 0.0434 ×10⁻⁶ cm/s

----------
assay type: in vitro ADME; conditions: human, microsomes
ASSAY ENDPOINT: microsomal CLint (µL/min/mg)
State just the number; it will be interpreted in µL/min/mg.

Report measured microsomal CLint; entry is CC(C(=O)NC1CCC(F)(F)CC1)(c1cncnc1)N(C(=O)CCl)c1ccc(-c2ccno2)cc1 (single isomer, unassigned) [INSCoV-601P(1A)]
66

Report measured microsomal CLint; entry is CC(C(=O)NC1CCC(F)(F)CC1)(c1cnccn1)N(C(=O)CCl)c1ccc(-c2ccns2)cc1 (centres unmarked) [INSCoV-601N]
169
